Field: CLhep predicted at 1 µM. Provide a value for each of the compounds that follow.
# METHOD: Metabolic stability in mouse liver microsomes assessed as hepatic clearance at 1 uM preincubated for 5 mins followed by NADPH addition measured upto 45 mins by LC-MS/MS analysis
# Format: ADME, Microsome
# PROTOCOL CONDITIONS: time < 50 min
One number for each entry, in mL/min/kg.

For orientation, consider the following solved cases.
CN(C(=O)[C@@H](NC(=O)C(F)(F)F)C1CC1)[C@@H](CSCc1ccccc1)C(=O)N1C[C@]2(C[C@H]1C#N)C(=O)Nc1ccccc12 : 84.9
CN(C(=O)[C@@H](NC(=O)C(C)(C)F)C1CC1)[C@@H](COCc1ccccc1)C(=O)N1C[C@]2(C[C@H]1C#N)C(=O)Nc1ccccc12 : 83.6

Parameters: items (list). Returns: CLhep predicted at 1 µM for each item.
1. CN(C(=O)[C@@H](NC(=O)C(F)(F)F)C1CC1)[C@@H](Cc1ccc(F)cc1)C(=O)N1C[C@]2(C[C@H]1C#N)C(=O)Nc1ccccc12
2. N#C[C@@H]1C[C@@]2(CN1C(=O)[C@@H](CSCc1ccc(F)cc1)NC(=O)[C@@H](NC(=O)C(F)(F)F)C1CC1)C(=O)Nc1ccccc12
3. CN(C(=O)[C@@H](NC(=O)C(C)(C)F)C1CC1)[C@@H](CSCc1ccccc1)C(=O)N1C[C@]2(C[C@H]1C#N)C(=O)Nc1ccccc12

1: 40.8; 2: 36.8; 3: 85.1

----------
# METHOD: AUC (0 to t) in ICR mouse at 10 mg/kg, iv measured for 24 hrs by LC-MS/MS analysis
# Format: ADME, organism-based
# PROTOCOL CONDITIONS: in vivo
Field: AUC(0-t) at 24 h. Provide a value for each of the molecules that follow.
Give bare numbers, in ng·h/mL.

CN(C(=O)[C@@H](NC(=O)C(F)(F)F)C1CC1)[C@@H](Cc1ccc(F)cc1)C(=O)N1C[C@]2(C[C@H]1C#N)C(=O)Nc1ccccc12 : 3420

Consider the molecule N#C[C@@H]1C[C@@]2(CN1C(=O)[C@@H](CSCc1ccc(F)cc1)NC(=O)[C@@H](NC(=O)C(F)(F)F)C1CC1)C(=O)Nc1ccccc12 and give its measured AUC(0-t) at 24 h.
2120

----------
# METHOD: AUC (0 to t) in ICR mouse at 20 mg/kg, po measured for 24 hrs by LC-MS/MS analysis
# Type: ADME, organism-based
# PROTOCOL CONDITIONS: in vivo
Field: AUC(0-t) at 24 h. Provide a value for each of the compounds that follow.
Give bare numbers, in ng·h/mL.

CN(C(=O)[C@@H](NC(=O)C(F)(F)F)C1CC1)[C@@H](Cc1ccc(F)cc1)C(=O)N1C[C@]2(C[C@H]1C#N)C(=O)Nc1ccccc12 : 1110

Now take the following compound into account.
Consider the compound N#C[C@@H]1C[C@@]2(CN1C(=O)[C@@H](CSCc1ccc(F)cc1)NC(=O)[C@@H](NC(=O)C(F)(F)F)C1CC1)C(=O)Nc1ccccc12 and give its measured AUC(0-t) at 24 h.
970

----------
# METHOD: Metabolic stability in mouse liver microsomes assessed as half life at 1 uM preincubated for 5 mins followed by NADPH addition measured upto 45 mins by LC-MS/MS analysis
# Type: ADME, Microsome
# PROTOCOL CONDITIONS: time < 50 min
Response field label takes 1.0 when half-life at 1 µM is strictly below 5 min and 0.0 in all other cases.

These solved cases illustrate the format of a correct answer.
CN(C(=O)[C@@H](NC(=O)C(C)(C)F)C1CC1)[C@@H](COCc1ccccc1)C(=O)N1C[C@]2(C[C@H]1C#N)C(=O)Nc1ccccc12 : 1.0
CN(C(=O)[C@@H](NC(=O)C(C)(C)F)C1CC1)[C@@H](CSCc1ccccc1)C(=O)N1C[C@]2(C[C@H]1C#N)C(=O)Nc1ccccc12 : 1.0

API: query returns whether the compound falls strictly under 5 min in half-life at 1 µM. Query: N#C[C@@H]1C[C@@]2(CN1C(=O)[C@@H](CSCc1ccc(F)cc1)NC(=O)[C@@H](NC(=O)C(F)(F)F)C1CC1)C(=O)Nc1ccccc12
0.0

API: query returns whether the compound falls strictly under 5 min in half-life at 1 µM. Query: CC(C)(C)[C@H](NC(=O)C(F)(F)F)C(=O)N1C[C@H]2[C@@H]([C@H]1C(=O)N[C@H](C#N)C[C@@H]1CCNC1=O)C2(C)C
0.0

API: query returns whether the compound falls strictly under 5 min in half-life at 1 µM. Query: CN(C(=O)[C@@H](NC(=O)C(F)(F)F)C1CC1)[C@@H](Cc1ccc(F)cc1)C(=O)N1C[C@]2(C[C@H]1C#N)C(=O)Nc1ccccc12
0.0

API: query returns whether the compound falls strictly under 5 min in half-life at 1 µM. Query: CN(C(=O)[C@@H](NC(=O)C(F)(F)F)C1CC1)[C@@H](CSCc1ccccc1)C(=O)N1C[C@]2(C[C@H]1C#N)C(=O)Nc1ccccc12
1.0
